- ASSAY_NOTES: Mean residence time in CD1 mouse at 20 mg/kg, ip measured up to 24 hrs
- Type: ADME, organism-based
- ASSAY_CONDITIONS: in vivo
PARAMETER: MRT (h)
Report the figure in h without appending any unit label.

Input line: Please give the measured MRT for this compound: Cc1c(Cc2ccccc2)c(-c2cc(Cl)nc(N)n2)nn1C
Output line: 2.82

====

- ASSAY_NOTES: Kinetic solubility of compound by UV- absorbance analysis
PARAMETER: solubility kinetic (µg/mL)
Report the figure in µg/mL without appending any unit label.

Take a look at these entries with their results.
Cc1c(Cc2cccs2)c(-c2cc(Cl)nc(N)n2)nn1C
0.38
Cn1cc(Cc2cccs2)c(-c2cc(Cl)nc(N)n2)n1
6.3
Cn1cc(Cc2cccc(F)c2)c(-c2cc(Cl)nc(N)n2)n1
7.5

The record that follows has no solubility kinetic shown yet.
Input line: Please give the measured solubility kinetic for this compound: Cc1c(Cc2ccccc2)c(-c2cc(Cl)nc(N)n2)nn1C
Output line: 1.3
